System: MvaT
test_name: PBM 8-mer E-score (mean of HK and ME arrays) (E-score (dimensionless, -0.5 to 0.5)); higher = stronger relative binding preference
In all, about 33,000 sequences were measured (“E-score (dimensionless, -0.5 to 0.5)”: median about -0.058, highest 2% from about 0.35 on). Only a selection was taken, and the highest values are over-represented in it overall.
reported_endpoint: PBM 8-mer E-score

> print(dat)
    residue.sequence  observed.result
 1          ATATTAAC            0.434
 2          AATATAAG            0.351
 3          CTTTGACC           -0.131
 4          ACACGAGT          -0.0299
 5          ACATATTG            0.281
 6          CCATATTA            0.353
 7          AATGATTC            0.144
 8          AAAATTGA            0.224
 9          GAAATTAA            0.331
10          ACATATTC            0.281
11          ATTGCGCA            0.111
12          TCATTAAA            0.228
13          GGTCTGTA           -0.219
14          CATATCAA            0.174
15          TATAAAAA            0.371
16          GTGTTAAA            0.177
17          CAAGAAAA           -0.021
18          AAAATTAA            0.387
19          GGCTCACC           -0.247
20          AAAATTAC            0.149
21          ACATATTA             0.44
22          CAAATTAA            0.286
